Cited source: ChEMBL document CHEMBL4052700

Target Desc: UniProtKB P08183
Sequence (P08183 whole entry): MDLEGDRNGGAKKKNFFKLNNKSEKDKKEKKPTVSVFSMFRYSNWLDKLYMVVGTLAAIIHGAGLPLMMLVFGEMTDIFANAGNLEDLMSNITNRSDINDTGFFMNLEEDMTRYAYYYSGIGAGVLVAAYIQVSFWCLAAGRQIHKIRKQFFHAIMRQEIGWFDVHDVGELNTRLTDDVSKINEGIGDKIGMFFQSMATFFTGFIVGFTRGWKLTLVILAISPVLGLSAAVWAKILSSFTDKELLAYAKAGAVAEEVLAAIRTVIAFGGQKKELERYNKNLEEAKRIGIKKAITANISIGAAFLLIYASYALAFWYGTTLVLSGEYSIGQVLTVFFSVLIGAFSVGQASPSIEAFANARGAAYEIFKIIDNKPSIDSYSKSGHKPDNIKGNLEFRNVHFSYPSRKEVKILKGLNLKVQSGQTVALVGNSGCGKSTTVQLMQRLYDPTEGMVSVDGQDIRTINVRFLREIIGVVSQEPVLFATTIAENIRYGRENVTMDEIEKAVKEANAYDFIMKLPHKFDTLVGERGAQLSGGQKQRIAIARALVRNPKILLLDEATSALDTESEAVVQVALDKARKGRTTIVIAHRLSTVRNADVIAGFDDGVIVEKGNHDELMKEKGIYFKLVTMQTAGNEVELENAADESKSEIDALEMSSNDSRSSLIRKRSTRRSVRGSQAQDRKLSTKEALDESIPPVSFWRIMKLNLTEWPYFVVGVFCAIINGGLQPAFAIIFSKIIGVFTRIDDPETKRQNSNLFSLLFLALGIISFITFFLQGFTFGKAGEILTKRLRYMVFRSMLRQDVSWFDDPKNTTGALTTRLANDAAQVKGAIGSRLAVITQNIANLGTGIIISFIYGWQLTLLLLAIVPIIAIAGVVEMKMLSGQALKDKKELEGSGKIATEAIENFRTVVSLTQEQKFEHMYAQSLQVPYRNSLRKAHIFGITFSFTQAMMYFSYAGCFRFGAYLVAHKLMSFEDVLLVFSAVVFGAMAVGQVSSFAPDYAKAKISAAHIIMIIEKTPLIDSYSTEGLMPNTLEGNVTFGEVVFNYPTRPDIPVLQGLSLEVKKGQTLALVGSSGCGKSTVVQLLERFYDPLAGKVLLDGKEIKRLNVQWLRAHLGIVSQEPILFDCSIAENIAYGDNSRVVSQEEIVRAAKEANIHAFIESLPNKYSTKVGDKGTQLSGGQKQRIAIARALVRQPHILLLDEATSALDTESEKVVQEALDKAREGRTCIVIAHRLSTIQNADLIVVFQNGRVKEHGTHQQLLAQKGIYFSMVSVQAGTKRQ
Experimental Details: Inhibition of ABCB1 in human K562/A02 cells assessed as potentiation of adriamycin-induced cytotoxicity by measuring reduction in ADR IC50 at 5 uM measured after 48 hrs by MTT assay relative to ADR alone
Format: cell-based
Where a name gives a salt, the structure may show the parent alone.
Consider the following compounds; for each one, report its fold change (FC).
Answers are plain numbers.

# return fold change (FC) for each item in the list
1. COc1cc2c(cc1OC)CN(CCn1cc(COc3ccccc3C(=O)Nc3ccc(C(C)(C)C)cc3)nn1)CC2
2. COc1cccc2c1C(=O)c1c(O)c3c(c(O)c1C2=O)C[C@@](O)(C(=O)CO)C[C@@H]3O[C@H]1C[C@H](N)[C@H](O)[C@H](C)O1 [DOXORUBICIN HYDROCHLORIDE]
3. COc1cc2c(cc1OC)CN(CCn1cc(COc3ccccc3C(=O)Nc3ccc(Cl)cc3)nn1)CC2

result:
33.5
1
14
